All figures here come from ChEMBL document CHEMBL1125714.

Experiment: Inhibition of the binding of radioligand [3H]AMPA in the presence at Non N-methyl-D-aspartate glutamate receptor
measure-name: IC50 (µM)

# molecule, readout-value
data = [
    ("Cc1onc(OCC(=O)O)c1CC(N)C(=O)O (stereo unspecified)", 90),
]

###

Assay: Inhibition of the binding of radioligand [3H]AMPA in the presence of the compound. at Non N-methyl-D-aspartate glutamate receptor

# compound, unit-symbol, IC50
measured = [
    ("Cc1onc(O)c1Cn1oc(C)c(CC(N)C(=O)O)c1=O (stereo unspecified)", "µM", 29),
]

###

Measured IC50 of individual entries
Biological target: Glutamate receptor ionotropic AMPA (Homo sapiens, UniProt P42261+P42262+P42263+P48058)
Assay: Inhibition of the binding of radioligand [3H]AMPA in the presence at low-affinity AMPA receptor sites.

# compound, study-target, IC50
records = [
    ("Cc1onc(O)c1Cn1oc(C)c(CC(N)C(=O)O)c1=O (configuration not stated)", "Glutamate receptor ionotropic AMPA (Homo sapiens, UniProt P42261+P42262+P42263+P48058)", "335 µM"),
    ("Cc1onc(OCC(=O)O)c1CC(N)C(=O)O (configuration not stated)", "Glutamate receptor ionotropic AMPA (Homo sapiens, UniProt P42261+P42262+P42263+P48058)", "98 µM"),
]
